B1: S. cerevisiae Abp1 (full length; SH3 domain 535-592 mutated) / Hua2 (parent)
chain 1: MALEPIDYTTHSREIDAEYLKIVRGSDPDTTWLIISPNAKKEYEPESTGSSFHDFLQLFDETKVQYGLARVSPPGSDVEKIIIIGWCPDSAPLKTRASFAANFAAVANNLFKGYHVQVTARDEDDLDENELLMKISNAAGARYSIQTSSKQQGKASTPPVKKSFTPSKSPAPVSKKEPVKTPSPAPAAKISSRVNDNNDDDDWNEPELKERDFDQAPLKPNQSSYKPIGKIDLQKVIAEEKAKEDPRLVQKPTAAGSKIDPSSDIANLKNESKLKRDSEFNSFLGTTKPPSMTESSLKNDDDKVIKGFRNEKSPAQLWAERKAKQNSGNAETKAEAPKPEVPEDEPEGEPDVKDLKSKFEGLAASEKEEEEMENKFAPPPKKSEPTIISPKPFSKPQEPVKAEEAEQPKTDYKKIGNPLPGMHIEADNEEEPEENDDDWDDDEDEAAQPPLPSRNVASGAPVQKEEPEQEEIAPSLPSRNSIPAPKQEEAPEQAPEEEIEEEAEEAAPQLPSRSSAAPPPPPRRATPEKKPKENPWATAEYDYDAAEDNELTFVENDKIINIEFVDDDWWLGELEKDGSKGLFPSNYVSLGN
chain 2: MQQTKFGKMYLDHDSVVEYSEDEIVEADRITLGYKKRLSMIENQMRHLLEDFSLDVQQIEPILADLQKYYDAFLQLLQKRNKSLQCKRSTHQPVPSPMNSQTSTNAKVNLSGKLMKFQLNSVQKFDEENILRILQNKIEFEHYFQIDKGKKQKVLLLAVYQCLNGPTRLHKVLNIEGIIHNNSIRTILGKQVSSSKWTVFLYDVKLVLLAHRQDVPNLETSKMIVRYGDLFPCALYFKDHTAY

Variants of: B1
method: DHFR protein-fragment complementation in yeast (Abp1-DHFR F[1,2] x partner-DHFR F[3]), deep mutational scanning, second methotrexate selection vs reference
applied-conditions: with Hua2; S. cerevisiae, DHFR-PCA selection in liquid with methotrexate at 30 C, two 72 h selections (the score uses the second); reference = the pre-selection culture; not an affinity; scale: DMS score: mean over two replicates of log2(f_test/f_ref + 0.5)/ln 2, minus the synonymous-codon median
Threshold -2. screen value below it: t. screen value at it or above: f.

mutation	assigned-class
chain 1 W569L	t

Q: Dear colleague, could you confirm whether screen value of chain 1 A545L falls below -2? Thanks.
A: t

Q: Input chain 1 Y543S
A: t

Q: Input chain 1 N561G
A: f

Q: Input chain 1 Y543C
A: t

Q: Input chain 1 F564V
A: t

Q: Input chain 1 E573L
A: t

Q: Input chain 1 E547W
A: t

Q: Input chain 1 I560D
A: t

Q: Input chain 1 T552V
A: t

Q: Input chain 1 N586F
A: t

Q: Input chain 1 E563Y
A: t

Q: Input chain 1 S589Y
A: f

Hey, just so you know, these numbers are from paper PMC7954794.
